Assay: yeast display, Sf9 membrane polyspecificity reagent, FACS + sequencing; frameworks hold sequencing errors
Measurement type: polyreactivity (PSR sort gate)

# count of solved cases: 5
Challenge: Recorded polyreactivity (PSR sort gate) for "QVQLVESGGGLVQAGGSLRLICAASGSIFSIYAMGWYRQAPGKERELVAAITWGGGSTYYADSVKGRFTISRDNAKNTVYLQINSLKPEDTAVYDCAAESLTWYGTYYYWGQGTQVTVSS" , please?
Response given: high polyreactivity

Challenge: Follow-up item: "QVQLVESGGGLVQAGGSLRLSCAASGSIFYYAMGWYRQAPGKERELVAAITTGDGTNYADSVKGRFTISRDNAKNTVYLQMNSLKPEDTAVYYCNSLPYQVWKRYSWGQGTQVTVSS"
Response given: low polyreactivity

Challenge: Then this sequence: "QVQLVESGGGLVQAGGTLRLSCAASGRIFWAYAMGRYRQAPGKERELVAAITRSGGYTRYADSVKGRFTISRDNAKNTVYLLMNSLKPEDTAVYYCNAYAPRQLYGYDYWGQGSQVTVSS"
Response given: high polyreactivity

Challenge: Lookup "QVQLVESGVGLVQAGGSLRLSCAASGGIFFYYAMGWSRQAPGKERELVAAISYSGGSTYYADSVKGRFTISRDNAKHTVYLQMNSVKPDDTAVNYCAAVPDYYEYSPYDYWGQGTQVTVSS"
Response given: low polyreactivity

Challenge: // repeat for "QVQLVESGGGVVQAGCSLRLSCAASGFTFRTNAMGWYRQAPGIEREFVAAISWSGGSTYYADSVKGRFTISRDNAKNTVYLQMNSLKPEDTAVYYCNADPFHWYYTNMYYWGQGTQVTVSS" and report
Response given: high polyreactivity

New cases:
Challenge: Please look up its polyreactivity (PSR sort gate): "QVQLVESGGGLVQAGGILRLSCAASGSIFYWSTMGWYIQAPGKERELVAAISSIDGNTYYADSVKGRFTISRDNAKNTVYLQMNSLKPEDTAVYYCAAAYYNTDYYYWGQGTQVTVSS"
Response given: low polyreactivity

Challenge: Also, "QVQLQESGVRLVQAGGSLRLSCAASGPISRRSTMGWYRQAPGKERELVTAITRGTNTNYADSVKGRFTISRDNAKNTEYLQMNSLKPEDTAVYYCAAYGVLKPSRGDAVFHRYWGQGTQVTVSS" please.
Response given: low polyreactivity

Challenge: Now give it for "QVQLVESGGGLVQAGGSLRLSCAASGSIFDPYAMGWYRQAPGKERELVAAINGGSGSTFYADSVKGRFTISRDNAKNTVNLQMNSLKPEDTAVYYCAAKIWRYSPSYYPEPRGDYWGQGTQVTVSS" too.
Response given: low polyreactivity

Challenge: Moving on to the next sequence: "QVQLVESGRALVQAGGSLRVSCAASGRTFDTNAMGWYRQAPGKERELVAVITARGGNTSYADSVKGRFTLSRDNAKNSVYLQMNSLKPEDTAVYYCAARVYRAPWTYDEGNYWGQGTQVTVSS"
Response given: low polyreactivity

Challenge: Next sequence: "QVQLVDSGGGLVQAGGSLRLSCAASGFIFVRYAMGWYRQAPGKERELVAAISWSGARTYYADSVKGRFTISRDNAKNTVYLQFNSLKPEDSAVYYCAADSLDAGYYGYDYWGQGTQVGVSS"
Response given: high polyreactivity

Challenge: Same thing, different sequence: "QVQLVESGGGLVQAGGSLRLSCAASGRTFNIYAMGWYRQAPGKERELVAAITWRSGSTYYADSVKGRFTISRDNAKNTVYLQMNSLTPEDTAVYYCAAEQWSCVPEFDYWGQGTQVTVSS"
Response given: high polyreactivity

---

Experiment: yeast display, Sf9 membrane polyspecificity reagent, FACS + sequencing; frameworks hold sequencing errors
Measurement type: polyreactivity (PSR sort gate)

Illustrative cases are given below, each with its answer.
Challenge: Query (sequence): "QVQIVESGGGLVQAGGSLRLSFAASGSIFSYNSMGWYRQAPGRERELVAAITPGCTSYYADSVKGLFRISRDNAKNTVYIQMNSLTPEDTAVYYCAADGLSRDTLYPYDYWGQGSQVTVSS" ; field requested: polyreactivity (PSR sort gate)
Response given: low polyreactivity

Challenge: And what about the sequence "QVQLVESGGGLVQAGGSLRLSCAASGRTFSNYVMGWSRQAPGKERELVAAITYSGGSTYYADSVKGRFTISRDNAKYTVYLQMNSLKPEDTAVYYCARRWGGSGYYYWGQGTQVTVSS" ?
Response given: high polyreactivity

Challenge: Same read-out for "QVQLVESGGGLVQAGGSLRLSCDASGRTFIVYAMGWYRQEPGKERELVARISSGSRTSYADSVKGRFTISRDNAKNTVYLQMNSLKPEDTAVYYCNAREYLKPGVPYYSQQLDYWGQGTQVTVSS" ?
Response given: low polyreactivity

Challenge: Moving on to "QVQLVESGGGLVQAGGSLRLSCAASGSTFDYYVMGWYRQAPGKERELVASISSGGSTYYADSVKGRFTISRDNAKNTVYLQMNSLKPEDTAVYYCAARYYGRVGGYSIGYNYWGQGTQVTVSS"
Response given: high polyreactivity

Challenge: Similarly, "QVQLVESGGGLVQAGGSLRLSCAASGIIFLENAMGWYRQAPGKERELVAGISSGGNTNYADSVKGRFTISRDNAKNTVYLQMNSLKPEDTALYYCNKFGYHREYDYWGQVTQVTVSS" ?
Response given: low polyreactivity

Challenge: Try this sequence next: "QVQLVESGGGLVQAGGRLLLSCAASGLTFYEYAMGWYRQAHGKERELVADIDFNGGSTSYAYSVKGRFTISRDNAKNTVYLQMNSLKPEDTAVYYCNTRDRGDVVTGLDYSGQGTQVTVSS"
Response given: low polyreactivity

Others:
Challenge: For the sequence "QVQLVESGGGLVQSGGSLRLSCAASGIIFQYYAMGWYRQAPGKEMELVAAITSSGGSTFYADSVKGSFTISRDNAKNTVYLQMNSLKPEDTAVYYCAAVYHRSTYDYWGQGTQVNVSS" , what polyreactivity (PSR sort gate) is on record?
Response given: high polyreactivity

Challenge: Here is the next sequence: "QVQLVESGGGLVQAGGSLRVSWAACGSTFYGYGMGWYRQAPWKERELVAAITGSGDTTYYADSVKGRFTISRDNAKNTVYLQMNSLKPEDTAVYYCAADASSKLYEYWGQGTQVTVSS"
Response given: low polyreactivity

Challenge: Moving on to "QVQLVESGGGLVQAGGSLRLSCAASGFIFHRYAMGWYRQAPGKERELVASITRSGGSTYYADSVKGRFTISRDNAKNTVYLQMNSLKPEDTAVYYCAAQLPSYYKYPRHDYWGQGTQVTVSS"
Response given: high polyreactivity

Challenge: Follow-up entry: "QVQLVESGGGLVQAGGSLRLSCAASGFIFWFYAMGWYRQAPGKEREFVATISRGGSKNYADSVKGRFTISRDNAKNTVYFKINSLKAEDTEVYYCAAARSSYWKTIRAFTMDYWGQGTQVTVSS"
Response given: high polyreactivity

Challenge: Could you do the same for "QVQLVESGGCLVQAGGSLRLSCAASGLIFPSYAMGWYRQAPGKERELVAAITFSGSDTNYADSVKGRFTISRDNAKNTVYLQLYSLIPEDTAVYYCAAAYFDFWGWLHDYWGQGTQVTVSS" , please?
Response given: low polyreactivity

Challenge: And for "QVQLVESGGGLVQAGGSLRLSCAASGRILFGYAMGWYRQAPGKERELVADITSTGSTNYADSVKGRFTISRDNAKNTVYLQMNSLKPEDTAVYYCNARRESYYQRYRVDYWGQGTQVNVSS" ?
Response given: low polyreactivity

Challenge: Try the sequence "QVQLVESGGGLVLAGGSLRLSCAASGSTFIWNAMGWYRQAPGKERELVAAIRRGSSTNYADSVKGRFTISRDNAKNTVYLQMNSLKPEDTAVYYCAKKQVTTDVSSETFVLEMDYWGQGTQVTVSS"
Response given: low polyreactivity

Challenge: Also check "QVQLVESGGGLVQAGGSLRLSCAASGSIFWINAMGWYRQAPGKERELVADIDVSGGSTYYADSVKGRFTISRDNAKNTVYLQMNSLKPEDTAVYYCAADDYWAYLYYKTSEYDYWGQGTQVTVSS"
Response given: low polyreactivity

---

Test: yeast display, Sf9 membrane polyspecificity reagent, FACS + sequencing; frameworks hold sequencing errors
Measurement type: polyreactivity (PSR sort gate)

Solved cases (6 shown):
Challenge: Field request: polyreactivity (PSR sort gate) | item: "QVHLVESGGGLVQAGGSLRLSCAASGRIFTYYAMGWYRQAPGKEREFVAAIRRSGGSTDYADSVKGRFTISRDNAKNTVYLQMNSLKPEDTAVYYCAAESPTYPGGEYWGQGTQVTVSS"
Response given: high polyreactivity

Challenge: Consider next the sequence "QVQLVESGGGLVQAGGSLRLSCAASGFTFQYYAMGWYRQAPGKERELVAAISRSGGSTYYADSVKGRFTISRDNAKNTVYLQMNSLKPEDTAVYYCAKDRVGARRTDYDYWGQGTQVTVSS" in the same way.
Response given: high polyreactivity

Challenge: Try this sequence next: "QVQLVESGGGLVQAGGSLRLSCAASGSIFGYYTMGWYRQAPGKERELVARITRGGSTYYADSVKGRFTISRDNAKNTVYLQMNSLYPEDTSVYYCNAEIWTEGGYWGQGSQVTVSS"
Response given: low polyreactivity

Challenge: Do the same for "QVQLVESGGGLVQAGGSLRLSCAASGSTFWWYAMGWYRQAPGKERELVATIRDGGSTNYADSVKGRFTISRDNAKNTVYLQMNSLKPEDTAVYYCNADVYPYYRKPWMDYWGQGTQVTVSS" please
Response given: low polyreactivity

Challenge: Moving on to "HVQLVESGGGLVQAGGSLRLSCAASGLIFDWYAMGWYRQAPGKERELVADISYSGGSTNYADSVKGRFTISRDNAKNTVYLQMNSLKPEDTAVYYCAVDYYYPTLTIGYYYWGQGTQVTVSS"
Response given: low polyreactivity

Challenge: And then "QVQLVESGGGLVQAGGSLRLSCAASVLILYYYAMGWYRQAPGKERELVAAISRRDGDTYYADSVKGRFTISRDNAKNTVYLQMNSLKPEDTAVYYCAADRRWSWVFRDDYWGQGTQVTVSS" , what is it?
Response given: low polyreactivity

# next sequence below
Challenge: Which measured polyreactivity (PSR sort gate) value corresponds to "QVQLVESGGGLVQAGGSLRLSCAASGITINFYAMGWYRQAPGKERELVAAITQSGGSTYYADSVKGRFTISRDNAKNTVYLQMNRLKPEDTAVYYCAAARTGHMYYWGQGTQVTVSS" ?
Response given: high polyreactivity
